target_under_test: human GPR119 (Homo sapiens, UniProt Q8TDV5)
Sequence (Q8TDV5 1-335): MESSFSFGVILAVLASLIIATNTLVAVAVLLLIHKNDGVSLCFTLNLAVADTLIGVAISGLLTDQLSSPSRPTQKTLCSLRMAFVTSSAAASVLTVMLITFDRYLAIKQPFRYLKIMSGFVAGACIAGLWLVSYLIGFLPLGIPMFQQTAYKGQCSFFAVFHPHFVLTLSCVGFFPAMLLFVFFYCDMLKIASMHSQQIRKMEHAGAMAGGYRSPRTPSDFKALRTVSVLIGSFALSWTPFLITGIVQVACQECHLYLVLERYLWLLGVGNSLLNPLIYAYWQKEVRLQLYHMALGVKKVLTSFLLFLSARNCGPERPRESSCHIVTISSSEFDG
measurement_description: cAMP assay (LANCE cAMP kit), activation of GPR119
study_conditions: HEK293 cells expressing human GPR119; increase in cAMP levels
pEC50: −log10 of the molar value.

| compound | pEC50 |
| --- | --- |
| CC(C)(C)OC(=O)N1CC2COCC(C1)C2Oc1ncnc2c1nnn2-c1ccc(C#N)cc1Cl (stereo not shown) | 6.30 to 7.00 |
| Fc1cnc(N2CC3COCC(C2)C3Oc2ncnc3c2ccn3-c2ccc(F)cc2F)nc1 (stereo not shown) | 7.00 to 7.30 |
| CCCc1cnc(N2CC3COCC(C2)C3Oc2ncnc3c2ccn3-c2ccc(S(C)(=O)=O)cc2F)nc1 (stereo not shown) | 7.00 to 7.30 |
| CC(C)(C)OC(=O)N1CC2COCC(C1)C2Oc1ncnc2c1ccn2-c1ccc(F)cc1F (stereo not shown) [Compound 6] | > 7.30 |
| Cc1c(F)ccc(-n2ccc3c(OC4C5COCC4CN(C(=O)OC4(C)CC4)C5)ncnc32)c1C#N (stereo not shown) | 7.00 to 7.30 |
| CC(C)(C)OC(=O)N1CC2COCC(C1)C2Oc1ncnc2c1ccn2-c1ccc(F)cc1F (stereo not shown) [Compound 7] | > 7.30 |
| CC1(OC(=O)N2CC3COCC(C2)C3Oc2ncnc3c2ncn3-c2ccc(C#N)cc2Cl)CC1 (stereo not shown) | 6.30 to 7.00 |

----------
Here, each record is paired with measured pEC50 data.
target_under_test: human GPR119 (Homo sapiens, UniProt Q8TDV5)
measurement_description: cAMP assay (LANCE cAMP kit), activation of GPR119
study_conditions: HEK293 cells expressing human GPR119; increase in cAMP levels
pEC50: −log10 of the molar value.

| molecule | target_under_test | pEC50 |
| --- | --- | --- |
| CC1OC(C)C2CN(C(=O)OC3(C)CC3)CC1C2Oc1ncnc2c1cnn2-c1ccc(C#N)cc1F (stereo not shown) [Compound 39] | human GPR119 (Homo sapiens, UniProt Q8TDV5) | 6.30 to 7.00 |
| CC1(OC(=O)N2CC3COCC(C2)C3Oc2ncnc3c2cnn3-c2ccc(-c3ncco3)cc2F)CC1 (stereo not shown) | human GPR119 (Homo sapiens, UniProt Q8TDV5) | 6.30 to 7.00 |
| CC1(OC(=O)N2CC3COCC(C2)C3Oc2ncnc3c2ccn3-c2ccc(S(C)(=O)=O)cc2F)CC1 (stereo not shown) | human GPR119 (Homo sapiens, UniProt Q8TDV5) | 6.30 to 7.00 |
| CC1(OC(=O)N2CC3COCC(C2)C3Oc2ncnc3c2ncn3-c2ccc(C#N)cc2F)CC1 (stereo not shown) | human GPR119 (Homo sapiens, UniProt Q8TDV5) | 7.00 to 7.30 |

Cited source for all entries: patent US20120232073A1
